Test system: 994946-033-R-J1-PDC complex spheroid viability;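 further: spheroids exposed to drugs for 7 days; 100% = DMSO vehicle treated spheroids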
Assay: Anticancer human tumor 994946-033-R-J1-PDC patient-derived melanoma cell line growth inhibition [POLQ]
Conditions: second compound 3.16 µM; first compound 0.0316 µM; active compounds read low
Quick reference: viability, T/C of the listed items.

{"compound": "COc1cc(C2c3cc4c(cc3C(OC3OC5COC(C)OC5C(O)C3O)C3COC(=O)C23)OCO4)cc(OC)c1O (stereo not given) + COC1C(OC(N)=O)C(O)C(Oc2ccc3c(O)c(NC(=O)c4ccc(O)c(CC=C(C)C)c4)c(=O)oc3c2C)OC1(C)C", "target.or.test.system": "994946-033-R-J1-PDC complex spheroid viability", "viability, T/C [%]": 109}
{"compound": "CNCc1ccc(-c2[nH]c3cc(F)cc4c3c2CCNC4=O)cc1 + Cc1cccc(N(C)C(=O)C2C(O)CCN2c2nc(C)cc(C(F)(F)F)c2C#N)c1", "target.or.test.system": "994946-033-R-J1-PDC complex spheroid viability", "viability, T/C [%]": 107}
{"compound": "CCc1cc2c(N3CCc4c(cc(Cn5ccnc5)cc4-c4cn(C)nc4C(F)(F)F)C3=O)ccnc2c(OC)n1 + COC1C(OC(N)=O)C(O)C(Oc2ccc3c(O)c(NC(=O)c4ccc(O)c(CC=C(C)C)c4)c(=O)oc3c2C)OC1(C)C", "target.or.test.system": "994946-033-R-J1-PDC complex spheroid viability", "viability, T/C [%]": 91.9}
{"compound": "C#Cc1c(F)ccc2cc(O)cc(-c3ncc4c(N5CC6CCC(C5)N6)nc(OCC56CCCN5CC(F)C6)nc4c3F)c12 (stereo not given) + COC1C(OC(N)=O)C(O)C(Oc2ccc3c(O)c(NC(=O)c4ccc(O)c(CC=C(C)C)c4)c(=O)oc3c2C)OC1(C)C", "target.or.test.system": "994946-033-R-J1-PDC complex spheroid viability", "viability, T/C [%]": 98.2}
{"compound": "COc1cc2cc(C(=O)CCC(=O)O)sc2cc1OC + Nc1ccc(C#CCN(C(=O)Cc2ncc(C(F)(F)F)cc2C(F)(F)F)c2ccc(F)cc2)nn1", "target.or.test.system": "994946-033-R-J1-PDC complex spheroid viability", "viability, T/C [%]": 116}
